pIC50: −log10 of the molar value.
Study the reported pIC50 values for human ACC2 (Homo sapiens (Human)) given below; they originate from different publications.
quantity: pIC50

CC(=O)N[C@@H](C)c1ccc(OC2CCN(c3ccnc(OCC4CC4)c3)C2)cc1 (some centres unmarked) | 7.22
C[C@H](NC(=O)c1cncs1)c1ccc(O[C@@H]2CCN(c3ccc(OCCCF)cn3)C2)cc1 | 6.96
CC(=O)NC(C)c1ccc(C#Cc2ccc(OCC(C)C)cc2)cc1 (centres unmarked) | 6.59

P = Cc1ccc(-c2ccc(C(F)(F)F)cc2)cc1C1=C(O)C2(CCCCC2)NC1=O
Q = COC(=O)N[C@@H](C)c1ccc(OC2CCN(c3ccnc(OCC4CC4)c3)C2)cc1 (some centres unmarked)
R = CC(=O)NC(C)Cc1ccc(C#Cc2cnc(NCCc3ccccc3)nc2)cc1 (centres unmarked)
S = CC(C(=O)NCC(F)F)c1ccc(O[C@@H]2CCN(c3ncnc(OCC(C)(C)O)c3F)C2)cc1 (some centres unmarked)
## Input Order each entry by recorded pIC50, climbing from the minimum. Provide the ranking by listing each label in its place in the requested order.
## Output P, R, S, Q

I = C[C@H](NC(=O)C1CC1)c1ccc(CN2CCc3c(ccc(OCC4CC4(F)F)c3Cl)C2)cc1 (some centres unmarked)
II = CC(=O)N[C@@H](C)c1ccc(OC2CCN(c3ccc(OCC(C)(C)F)cn3)C2)cc1 (some centres unmarked)
III = COc1c(OC2CCC2)ccc2c1CCN(Cc1ccc([C@H](C)NC(C)=O)cc1)C2
## Input Highest pIC50 first, then in falling order down to the smallest. Provide the ranking by listing each label in its place in the requested order.
## Output I, III, II

I = COc1c(N2CC[C@@H](Oc3ccc([C@H](C)NC(C)=O)cc3)C2)ccnc1N1CCC(F)(F)C1
II = CC(=O)N[C@@H](C)c1ccc(C2CN(c3ccnc(N4CCOCC4)n3)C2)cc1
III = CC(C)Oc1cc(N2CCC(Oc3ccc([C@H](C)NC(=O)C4CCOC4)cc3)C2)ccn1 (some centres unmarked)
## Input Highest pIC50 first, then in falling order down to the smallest. Provide the ranking by listing each label in its place in the requested order.
## Output I, III, II

I = CC(C)Oc1ccc(C#Cc2ccc([C@H](C)NC(=O)C3CC3)cc2)cc1
II = CC(=O)N[C@@H](C)c1ccc(O[C@@H]2CCN(c3ccnc(N(C)C(C)C)c3F)C2)cc1
## Input Please compare: I and II . Report which one has the smaller pIC50 value. Returns: label corresponding to the selected item.
## Output I

----------
Study the reported pIC50 values for UniProt O00763 given below; they originate from different publications.
pIC50: −log10 of the molar value.
quantity: pIC50

CC(=O)NC(C)Cc1ccc(C#Cc2ccc3c(c2)OCCO3)cc1 (stereo not shown) | 6.66
C[C@H](NC(=O)N(C)C)c1ccc(OC2CCN(c3ccc(OC4CC4)cc3)C2)cc1 (stereo partly shown) | 6.97

P = Cc1ccc(-c2ccc(Cl)cc2)cc1C1=C(O)C(C)(C2CC2)NC1=O (stereo not shown)
Q = CC(=O)N[C@@H](C)c1ccc(O[C@@H]2CCN(c3nccc(N(C)C)c3F)C2)cc1
## Input Please compare: P and Q . Report which one has the smaller pIC50 value. Returns: label corresponding to the selected item.
## Output P
(P: 5.48, Q: 6.01)

P = CCOc1cccc2c1CCN(Cc1ccc(C(C)NC(C)=O)cc1)C2 (stereo not shown)
Q = C[C@H](NC(=O)c1cnn(C)c1)c1ccc(OC2CCN(c3ccnc(OCC(F)F)c3)C2)cc1 (stereo partly shown)
R = CCCc1cnc(N2CC(c3ccc(CC(C)NC(C)=O)cc3)C2)nc1 (stereo not shown)
S = CC(C)Oc1cc(N2CCC(Oc3ccc([C@H](C)NC(=O)c4ccno4)cc3)C2)ccn1 (stereo partly shown)
T = COc1ccccc1C(Cn1c(=O)n(C(C)(C)C(=O)O)c(=O)c2c(C)c(-c3ncco3)sc21)O[C@H]1C[C@H]2CC(C#N)C[C@H]2C1 (stereo partly shown)
## Input Order each entry by recorded pIC50, climbing from the minimum. Provide the ranking by listing each label in its place in the requested order.
## Output R, S, P, Q, T
